Test system: IGROV1 ovarian
assay remarks: NCI-60 one-dose screen, 48 h
experimental parameters: 10 µM unless noted
Compounds without any hit were thinned out: in the full panel of roughly 83,000, 20% have a hit. The source made the active and inactive calls. The calls were made as follows: active = growth percent below 10; inactive = the rest.
Respond with a class label; see YES (active), NO (inactive)

CC[C@H](C)[C@H](NC(=O)C12CC(NC)(C1)C2)C(=O)N(C)[C@H](C[C@@H](OC(C)=O)c1nc(C(=O)N[C@@H](Cc2ccccc2)C[C@H](C)C(=O)OC)cs1)C(C)C : NO

Answer briefly: the call reported for O=[N+]([O-])c1ccc2scc3c4ccccc4nc-3c2c1 in this assay.
YES

Answer briefly: the call reported for CC[C@H](C)[C@H](NC(=O)[C@H]1CCCCN1C)C(=O)N(C)[C@H](C[C@@H](OC(C)=O)c1cccc(C(=O)N[C@@H](Cc2ccccc2)C[C@H](C)C(=O)OC)n1)C(C)C in this assay.
NO

###

Test system: NCI-H226 lung
assay remarks: NCI-60 one-dose screen, 48 h
experimental parameters: 10 µM unless noted
Compounds without any hit were thinned out: in the full panel of roughly 83,000, 20% have a hit. Activity calls are given as the source filed them. The calls were made as follows: active = growth percent below 10; inactive = the rest.
Respond with a class label; see yes (1) for active, no (0) for inactive

Below, 3 molecules whose answers are already recorded.
CCCCS(=O)(=O)Cl : no (0)
Cn1cc(-c2csc(-c3cn(CCCCN4CCOCC4)c4ccc(F)cc34)n2)c2cccnc21 : no (0)
Cc1ccccc1-n1c(/C=C\c2ccccn2)nc2ccccc2c1=O : no (0)

Answer briefly: the call reported for [N-]=[N+]=CC(=O)CCC(=O)C=[N+]=[N-] in this assay.
no (0)

Answer briefly: the call reported for C[N+]1(CC#CC[N+]2(C)CCCC2)CCCC1 in this assay.
no (0)

###

Test system: OVCAR-5 ovarian
assay remarks: NCI-60 one-dose screen, 48 h
experimental parameters: 10 µM unless noted
About 83,000 compounds went through this panel and 20% of them were active in at least one assay; those are over-represented in the sample as a whole. The source made the active and inactive calls. How the source made its calls: active means growth percent below 10; inactive means the rest.
Respond with a class label; see yes (active), no (inactive)

Below, 5 compounds whose answers are already recorded.
Cc1ccc(S(=O)(=O)n2cc([C@@]3(O)C[C@H](CSC#N)OC3=O)c3ccccc32)cc1 : no
N#CC(C#N)=C(C#N)C#N : no
COc1cc(C2C3=C(CCCC3=O)N(CCO)c3cc4c(cc32)CCC4)cc(OC)c1OC (configuration not stated) : no
O=C(Cc1ccccc1)NC(O)C(Cl)(Cl)Cl (configuration not stated) : no
Cc1c2ccncc2c(C)c2c1[nH]c1ccccc12 : yes

Answer briefly: the call reported for O=P(O)(Nc1ccccc1)Nc1ccccc1 in this assay.
no

###

Tested on: DU-145 prostate
assay remarks: NCI-60 one-dose screen, 48 h (100 = growth as untreated, 0 = no growth, -100 = all killed)
experimental parameters: 10 µM unless noted
Compounds without any hit were thinned out: in the full panel of roughly 83,000, 20% have a hit.
readout kind: growth (%)
Answers are plain numbers, in %.

Hi, could you look up growth for each item in my list?
1. CC1=CC(=O)CCC12CCOC2=O (stereo unspecified)
2. COC(=O)C1=CO[C@@H](C)[C@@H]2CN3CCc4c([nH]c5cc(OC)ccc45)[C@@H]3C[C@H]12
3. CC/C(=C(\c1ccc(OCCN2CCOCC2)cc1)c1ccc(OC(=O)Cc2ccccc2)cc1)c1ccc(Cl)cc1

106
104
101

###

System: SK-MEL-2 melanoma
assay remarks: NCI-60 one-dose screen, 48 h
experimental parameters: 10 µM unless noted
Experimental: Growth inhibition of the SK-MEL-2 human tumor cell line is measured as a screen for anti-cancer activity. Cells are grown in 96 well plates and exposed to the test compound for 48 hours. Compounds are tested at a single concentration, which is 10^-5 M for most compounds. The reported endpoint is percent growth (GI% or GIPRCNT), where numbers from 0 - 100% represent growth inhibition, and numbers from -100% - 0 represent cell death. For example, a value of 40 represents 60% growth inhibition. […]
The panel holds about 83,000 compounds, 20% with a hit somewhere; the sample as a whole holds those more often. Active and inactive are the calls of the source. How the source made its calls: active means growth percent below 10; inactive means the rest.
Respond with a class label; see 1 = active, -1 = inactive

CCOC(=O)P(=O)(OCC)OCC : -1
Nc1c(Cl)c(Cl)nc(C(=O)O)c1Cl : -1
N#CC(C#N)=Cc1cccc(F)c1 : -1

Now let's try a different one.
Answer briefly: the call reported for C[C@]12CCc3sc(Nc4ccc(O)cc4)nc3C1=CC[C@@H]1[C@@H]2CC[C@]2(C)C(=O)CC[C@@H]12 in this assay.
-1

###

Tested on: MALME-3M melanoma
assay remarks: NCI-60 one-dose screen, 48 h
experimental parameters: 10 µM unless noted
About 83,000 compounds went through this panel and 20% of them were active in at least one assay; those are over-represented in the sample as a whole. Calls of active or inactive are those of the source. The calls were made as follows: active = growth percent below 10; inactive = the rest.
Respond with a class label; see true for active, false for inactive

Below, 8 compounds whose answers are already recorded.
Cn1cc(-c2csc(-c3cn(CCCCN4CCOCC4)c4ccc(F)cc34)n2)c2cccnc21 : true
Cc1ccc(P(=O)(O)O)cc1 : false
C[C@]12CC[C@H]3[C@@H](CC=C4c5nc(-c6ccc(Br)cc6)sc5CC[C@@]43C)[C@@H]1CC[C@@H]2O : false
CC[C@H](C)[C@H](NC(=O)[C@H]1CCCCN1C)C(=O)N(C)[C@H](CCc1nc(C(=O)N[C@@H](Cc2ccccc2)C[C@H](C)C(=O)O)cs1)C(C)C : false
CC[C@H](C)[C@H](NC(=O)C12CC(NC)(C1)C2)C(=O)N(C)[C@H](C[C@@H](OC(C)=O)c1nc(C(=O)N[C@@H](Cc2ccccc2)C[C@H](C)C(=O)OC)cs1)C(C)C : false
CCCC(C)SP(=S)(SC(C)CCC)SC(C)CCC (centres undefined) : false
CCCCS(=O)(=O)Cl : false
C[C@]12CC[C@H]3[C@@H](C[C@@H]4SC(Nc5cccc(F)c5)=N[C@@]45CC(=O)CC[C@]35C)[C@@H]1CCC2=O : false

Now let's try a different one.
Answer briefly: the call reported for N#Cc1ccc(Cl)cc1 in this assay.
false

###

System: SF-539 CNS
assay remarks: NCI-60 one-dose screen, 48 h (100 = growth as untreated, 0 = no growth, -100 = all killed)
experimental parameters: 10 µM unless noted
The panel holds about 83,000 compounds, 20% with a hit somewhere; the sample as a whole holds those more often.
readout kind: growth (%)
Numbers only, in %.

Hi, could you look up growth for each item in my list?
1. CC1(C)CN=C(NN=C(/C=C/c2ccc(C(F)(F)F)cc2)/C=C/c2ccc(C(F)(F)F)cc2)NC1
2. CC[C@H](C)[C@H](NC(=O)CN(C)C)C(=O)N(C)[C@H](C[C@@H](OC(C)=O)c1nc(C(=O)NC23C4C5C2C2C3C4C52C(=O)OC)cs1)C(C)C (some centres undefined)

-78.4
-1.99

Hi, could you look up growth for each item in my list?
1. O=CC1(c2ccccc2)CCN(Cc2ccccc2)CC1
2. C[C@]12CC[C@H](O)C[C@@H]1CC[C@@H]1[C@@H]2CC[C@]2(C)OC(=O)CC[C@@H]12

1: 106; 2: 95.9

###

Test system: UACC-257 melanoma
assay remarks: NCI-60 one-dose screen, 48 h (100 = growth as untreated, 0 = no growth, -100 = all killed)
experimental parameters: 10 µM unless noted
The panel holds about 83,000 compounds, 20% with a hit somewhere; the sample as a whole holds those more often.
readout kind: growth (%)
Give bare numbers, in %.

C[C@H](O)CCC(=O)c1ccoc1 : 99.5
COc1cc(-c2ccc(N)c(OC)c2)ccc1N : 134
COC(=O)C1=CCCN(C)C1 : 96.8

Hi, could you look up growth for each item in my list?
1. Cc1ccc(C(=O)O[C@H](C(=O)O)[C@H](OC(=O)c2ccc(C)cc2)C(=O)O)cc1
2. CC(C)c1cccc(C(C)C)c1O
3. C=CC[PH+](c1ccccc1)c1ccccc1.C=CC[PH+](c1ccccc1)c1ccccc1.[Pt+2].[S-]c1ncccn1.[S-]c1ncccn1
4. O=S1(=O)OCCO1
5. CCCCS(=O)(=O)Cl

1. 94
2. 100
3. 66.7
4. 96.7
5. 110

Hi, could you look up growth for each item in my list?
1. CN1[C@@H](CC(=O)c2ccccc2)CCC[C@H]1CC(=O)c1ccccc1
2. NC(=O)Oc1cc(OC(N)=O)cc(N(CCCl)CCCl)c1
3. O=[N+]([O-])c1ccc(CI)cc1

1. 98.1
2. 57.2
3. 80.9

###

System: SK-MEL-5 melanoma
assay remarks: NCI-60 one-dose screen, 48 h
experimental parameters: 10 µM unless noted
Compounds without any hit were thinned out: in the full panel of roughly 83,000, 20% have a hit. Calls of active or inactive are those of the source. The calls were made as follows: active = growth percent below 10; inactive = the rest.
Respond with a class label; see t for active, f for inactive

CCOC(=O)C1C(C=C(C)C)C1(C)C (stereo not drawn) : f

Answer briefly: the call reported for O=C(O)C(F)F in this assay.
f

Answer briefly: the call reported for S=P(SP(=S)(c1ccccc1)c1ccccc1)(c1ccccc1)c1ccccc1 in this assay.
f

Answer briefly: the call reported for O=C(O)CNCP(=O)(O)O in this assay.
f

Answer briefly: the call reported for O=S(=O)(c1ccc(O)cc1)c1ccccc1O in this assay.
f
